protocolDescription: in vitro
conditionDetails: human, HepG2 cells
Description: Cytotoxicity against human HepG2 cells assessed as cell viability at 100 uM after 24 hrs by CellTiter-Glo luminescence assay relative to control
readoutLabel: viability at 24 h, 100 µM (%)
Reply numerically in %, unit not repeated.

Query :: Using the record for CN(C)c1ccc(C2NC(=S)Nc3nc4c(c(N)c32)CCCC4)cc1 (configuration not stated) , report its viability at 24 h, 100 µM.
Result :: 82.5

Query :: Using the record for COc1ccccc1C1NC(=S)Nc2nc3c(c(N)c21)CCCC3 (configuration not stated) , report its viability at 24 h, 100 µM.
Result :: 81.1

Query :: Using the record for Nc1c2c(nc3c1C(c1ccc(F)cc1)NC(=S)N3)CCCC2 (configuration not stated) , report its viability at 24 h, 100 µM.
Result :: 79.1

Query :: Using the record for Nc1c2c(nc3c1C(c1cccc(Br)c1)NC(=S)N3)CCCC2 (configuration not stated) , report its viability at 24 h, 100 µM.
Result :: 76.8

Query :: Using the record for Nc1c2c(nc3c1C(c1cccc([N+](=O)[O-])c1)NC(=S)N3)CCCC2 (configuration not stated) , report its viability at 24 h, 100 µM.
Result :: 96.5

Query :: Using the record for Nc1c2c(nc3c1C(c1ccc4c(c1)OCO4)NC(=S)N3)CCCC2 (configuration not stated) , report its viability at 24 h, 100 µM.
Result :: 91.2

Query :: Using the record for Nc1c2c(nc3c1C(c1ccccc1)NC(=S)N3)CCCC2 (configuration not stated) , report its viability at 24 h, 100 µM.
Result :: 97.2

Query :: Using the record for Cc1cccc(C2NC(=S)Nc3nc4c(c(N)c32)CCCC4)c1 (configuration not stated) , report its viability at 24 h, 100 µM.
Result :: 82.5

Query :: Using the record for Nc1c2c(nc3c1C(c1ccc(Cl)cc1)NC(=S)N3)CCCC2 (configuration not stated) , report its viability at 24 h, 100 µM.
Result :: 27.9

Query :: Using the record for COc1ccc(C2NC(=S)Nc3nc4c(c(N)c32)CCCC4)cc1 (configuration not stated) , report its viability at 24 h, 100 µM.
Result :: 100

Query :: Using the record for Cc1ccc(C2NC(=S)Nc3nc4c(c(N)c32)CCCC4)cc1 (configuration not stated) , report its viability at 24 h, 100 µM.
Result :: 62

Query :: Using the record for COc1cccc(C2NC(=S)Nc3nc4c(c(N)c32)CCCC4)c1 (configuration not stated) , report its viability at 24 h, 100 µM.
Result :: 102

* * *

protocolDescription: in vitro
conditionDetails: human, HepG2 cells
Description: Cytotoxicity against human HepG2 cells assessed as cell viability at 300 uM after 24 hrs by CellTiter-Glo luminescence assay relative to control
Simple rule here: viability at 24 h, 300 µM less than 70% is 1, otherwise 0.

Query :: I wonder whether COc1ccc(C2NC(=S)Nc3nc4c(c(N)c32)CCCC4)cc1 (stereo unspecified) has viability at 24 h, 300 µM below 70%. Can you tell?
Result :: 0

Query :: I wonder whether Nc1c2c(nc3c1C(c1ccc(F)cc1)NC(=S)N3)CCCC2 (stereo unspecified) has viability at 24 h, 300 µM below 70%. Can you tell?
Result :: 0

Query :: I wonder whether Nc1c2c(nc3c1C(c1ccc(Cl)cc1)NC(=S)N3)CCCC2 (stereo unspecified) has viability at 24 h, 300 µM below 70%. Can you tell?
Result :: 1

Query :: I wonder whether Cc1ccc(C2NC(=S)Nc3nc4c(c(N)c32)CCCC4)cc1 (stereo unspecified) has viability at 24 h, 300 µM below 70%. Can you tell?
Result :: 1
